Experiment: Plasma protein binding in rat at 816 ug/ml by ultrafiltration method
Format: ADME, cell-free
Settings: read-out: PPB (converted)
Measurement Label: fraction unbound at 816 ug/ml

Ask | Name the reported fraction unbound at 816 ug/ml value associated with the compound CC(=O)O[C@H]([C@@H](O)C[C@@H](C)C1=C2C[C@H](O)[C@H]3[C@@]4(C)CCC(=O)C(C)(C)[C@@H]4CC[C@]3(C)[C@@]2(C)CC1)C(C)(C)O
Reply | 0.29

----------
Experiment: Plasma protein binding in rat at 408 ug/ml by ultrafiltration method
Format: ADME, cell-free
Settings: read-out: PPB (converted)
Measurement Label: fraction unbound at 408 ug/ml
Answers are plain numbers.

Ask | Param item = CC(=O)O[C@H]([C@@H](O)C[C@@H](C)C1=C2C[C@H](O)[C@H]3[C@@]4(C)CCC(=O)C(C)(C)[C@@H]4CC[C@]3(C)[C@@]2(C)CC1)C(C)(C)O ; retrieve measured fraction unbound at 408 ug/ml.
Reply | 0.3
